Documented EGFR % Activity Set1 across a set of compounds
test-target: EGFR (Homo sapiens)
Sequence (P00533 25-1210): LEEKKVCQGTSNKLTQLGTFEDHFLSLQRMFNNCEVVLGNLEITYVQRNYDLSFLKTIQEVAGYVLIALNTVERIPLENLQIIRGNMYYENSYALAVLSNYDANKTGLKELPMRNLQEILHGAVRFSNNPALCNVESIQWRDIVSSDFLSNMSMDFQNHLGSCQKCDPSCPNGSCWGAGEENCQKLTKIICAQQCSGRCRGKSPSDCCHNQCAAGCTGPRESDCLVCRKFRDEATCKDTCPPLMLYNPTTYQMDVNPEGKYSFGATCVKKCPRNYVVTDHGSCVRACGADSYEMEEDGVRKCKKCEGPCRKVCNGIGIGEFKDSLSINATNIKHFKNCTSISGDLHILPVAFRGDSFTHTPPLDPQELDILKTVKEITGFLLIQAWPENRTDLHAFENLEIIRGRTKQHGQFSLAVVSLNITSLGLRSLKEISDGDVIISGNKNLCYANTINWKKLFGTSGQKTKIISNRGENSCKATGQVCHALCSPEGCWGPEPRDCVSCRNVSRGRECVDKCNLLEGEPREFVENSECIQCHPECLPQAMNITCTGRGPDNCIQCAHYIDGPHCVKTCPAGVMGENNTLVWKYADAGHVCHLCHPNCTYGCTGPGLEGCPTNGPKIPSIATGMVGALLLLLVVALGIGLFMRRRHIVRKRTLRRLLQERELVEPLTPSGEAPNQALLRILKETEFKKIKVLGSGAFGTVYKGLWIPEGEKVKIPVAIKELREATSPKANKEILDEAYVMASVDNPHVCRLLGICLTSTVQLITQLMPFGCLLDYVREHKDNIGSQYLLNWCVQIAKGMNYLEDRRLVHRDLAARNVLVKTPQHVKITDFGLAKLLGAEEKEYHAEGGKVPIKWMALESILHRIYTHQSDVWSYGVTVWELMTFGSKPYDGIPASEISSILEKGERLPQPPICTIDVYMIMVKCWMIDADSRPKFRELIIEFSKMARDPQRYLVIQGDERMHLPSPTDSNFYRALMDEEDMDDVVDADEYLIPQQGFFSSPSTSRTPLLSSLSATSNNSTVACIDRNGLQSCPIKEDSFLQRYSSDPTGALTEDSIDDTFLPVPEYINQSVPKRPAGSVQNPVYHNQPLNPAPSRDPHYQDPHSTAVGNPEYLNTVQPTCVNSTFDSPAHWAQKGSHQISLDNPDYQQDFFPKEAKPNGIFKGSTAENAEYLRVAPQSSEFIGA
procedure-text: ADP-Glo kinase assay, EGFR
Assay type: biochemical
Parameters: purchased BPS Bioscience (assay run externally by the vendor)
recorded-conditions: Log[nM] 5.0; Set1

{"columns": ["compound", "test-target", "EGFR % Activity Set1, %"],
 "data": [
  ["Cc1ccc(Nc2ncnc3[nH]ccc23)cc1 [Compound 9]", "EGFR (Homo sapiens)", 1],
  ["Brc1ccc(Nc2ncnc3[nH]ccc23)cc1 [Compound 10]", "EGFR (Homo sapiens)", 1],
  ["Brc1cccc(Nc2ncnc3[nH]ccc23)c1 [Compound 2]", "EGFR (Homo sapiens)", 0],
  ["c1ccc(Nc2ncnc3[nH]ccc23)cc1 [Compound 1]", "EGFR (Homo sapiens)", 1],
  ["Cc1cccc(Nc2ncnc3[nH]ccc23)c1 [Compound 12]", "EGFR (Homo sapiens)", 0],
  ["Fc1cc(Nc2ncnc3[nH]ccc23)ccc1Cl [Compound 3]", "EGFR (Homo sapiens)", 0],
  ["c1ccc(Cc2ccc(Nc3ncnc4[nH]ccc34)cc2)cc1 [Compound 18]", "EGFR (Homo sapiens)", 2],
  ["COc1ccc(Nc2ncnc3[nH]ccc23)cc1 [Compound 6]", "EGFR (Homo sapiens)", 4],
  ["c1ccc(Oc2ccc(Nc3ncnc4[nH]ccc34)cc2)cc1 [Compound 17]", "EGFR (Homo sapiens)", 4],
  ["Clc1cccc(Nc2ncnc3[nH]ccc23)c1 [Compound 11]", "EGFR (Homo sapiens)", 0],
  ["Clc1ccc(Nc2ncnc3[nH]ccc23)cc1Cl [Compound 5]", "EGFR (Homo sapiens)", 0]
]}
